Target: SyArgG (Synechocystis sp. PCC 6803, UniProt P77973)
Construct: gene argG; synthetic ORF in pGEX-6P-1 (BamHI-XhoI); GST-tagged, tag kept (eluted with glutathione, no cleavage described); expressed in E. coli BL21(DE3)
Sequence (P77973 whole entry): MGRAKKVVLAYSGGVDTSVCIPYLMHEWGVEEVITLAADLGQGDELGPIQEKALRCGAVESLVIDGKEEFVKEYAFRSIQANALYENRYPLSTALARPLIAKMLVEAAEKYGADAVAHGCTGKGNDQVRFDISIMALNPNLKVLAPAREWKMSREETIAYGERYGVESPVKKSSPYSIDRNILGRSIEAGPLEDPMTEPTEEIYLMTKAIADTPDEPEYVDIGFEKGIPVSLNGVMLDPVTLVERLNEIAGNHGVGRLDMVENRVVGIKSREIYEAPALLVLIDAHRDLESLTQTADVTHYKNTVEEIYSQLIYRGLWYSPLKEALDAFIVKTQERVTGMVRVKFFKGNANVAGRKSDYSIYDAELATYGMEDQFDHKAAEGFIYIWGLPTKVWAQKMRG
Assay: coupled NADH oxidation assay (myokinase, pyruvate kinase, lactate dehydrogenase), […] nm
Type: biochemical
Conditions: read-out: % residual activity at 5 mM

COMPOUND: O=C(O)CCC(=O)O [succinate]
remaining activity at 5000 µM [%]: 92.1
//
COMPOUND: NCCCC[C@H](N)C(=O)O
remaining activity at 5000 µM [%]: 78.1
//
COMPOUND: NCCC[C@H](N)C(=O)O
remaining activity at 5000 µM [%]: 80.1
//
COMPOUND: N=C(N)NCCC[C@H](N)C(=O)O
remaining activity at 5000 µM [%]: 18.4

Each recorded value in this set is attributed to paper PMC10937788.
